Below, each entry is listed with its recorded Decrease in luciferase expression relative to Prm1HΔ (−6320).
- System: HEL 92.1.7 cells
- experiment: Dual luciferase genetic reporter assay of promoter-directed luciferase expression in HEL cells
- Assay type: cell-based, human
- experimental-context: HEL; site-directed mutation within Prm1HΔ

Record excerpt, results attached:
Prm1HΔ^Sp1/Egr1(−6007)*: Prm1HΔ with Sp1/Egr1 element at −6007 mutated (SEQ ID NO:37) (DNA CCCTCGCAATACCCTCGG; expressed or natural sequence; listed as Homo sapiens)	1.5 fold
Prm1HΔ^Sp1/Egr1(−6294)*: Prm1HΔ with Sp1/Egr1 element at −6294 mutated (SEQ ID NO:25) (DNA CGAGGAACATGGCCA; expressed or natural sequence; listed as Homo sapiens)	1.3 fold

Here is another substance to look at.
Identify measured Decrease in luciferase expression relative to Prm1HΔ (−6320) corresponding to Prm1HΔ^Sp1/Egr1(−6022)*: Prm1HΔ with Sp1/Egr1 element at −6022 mutated (SEQ ID NO:35) (DNA TCTGCCCTAACCCAGCCCT; expressed or natural sequence; listed as Homo sapiens)
1.8 fold

###

- System: HEL 92.1.7 cells
- experiment: Dual luciferase genetic reporter assay of promoter-directed luciferase expression in HEL cells
- Format: cell-based, human
- experimental-context: HEL; 5′ deletion or site-directed mutation of Prm1
result-type: Increase in luciferase activity relative to Prm1 (−8500) (fold)
Respond numerically; units are fold and should not be typed.

Record excerpt, results attached:
Prm1^GC*^(−7831): Prm1 with GC element at −7831 mutated (SEQ ID NO:15) (DNA TCACTGTCCTCTCATCT; expressed or natural sequence; listed as Homo sapiens)	2.1
Prm1^GC*^(−8345): Prm1 with GC element at −8345 mutated (SEQ ID NO:9) (DNA TGCCCCTGACCCCAC; expressed or natural sequence; listed as Homo sapiens)	2.0
Prm1^GC*^(−8146): Prm1 with GC element at −8146 mutated (SEQ ID NO:13) (DNA CGGGGGTCGTGGGGTGGATGGCGGGCCAA; expressed or natural sequence; listed as Homo sapiens)	2.5

Identify measured Increase in luciferase activity relative to Prm1 (−8500) corresponding to Prm1^GC*^(−8281): Prm1 with GC element at −8281 mutated (SEQ ID NO:11) (DNA GCCCGGTTCCCGCCGGA; expressed or natural sequence; listed as Homo sapiens)
1.9
